Parameter pKi: see the listing below.
Target: bacterial DHFR (bDHFR) (Escherichia coli)
Construct: gift of Eric Brown, McMaster University
Experiment: DHFR enzyme assay, Ki determination, bacterial DHFR
Assay type: biochemical, E. coli
Details: Table 3; read-out: bDHFR Ki
pKi: −log10 of the molar value.

## Input For the compound Nc1nc(N)c2nc(CNc3cc(Cl)cc(Cl)c3)cnc2n1 , what pKi is on record?
## Output 6.00 to 6.30

## Input // pKi lookup, key: CN(Cc1cnc2nc(N)nc(N)c2n1)c1ccc(C(=O)NCc2ccncc2)cc1
## Output > 7.00

## Input State the recorded pKi for this entry: C[C@H](c1cccc2ccccc12)N(C)c1ncc2c(N)nc(N)nc2n1
## Output > 8.70

## Input Would you kindly share the measured pKi for CN(Cc1cnc2nc(N)nc(N)c2n1)c1ccc(C(=O)NCc2ccccn2)cc1 ?
## Output > 7.00

## Input // query pKi value for entry Nc1nc(N)c2cnc(NCc3ccc(Oc4ccc(F)cc4)cc3)nc2n1
## Output > 6.00

----------
Molecular target: bacterial DHFR (bDHFR) (Escherichia coli, UniProt P0ABQ4)
Construct: gift of Eric Brown, McMaster University
Assay: DHFR enzyme assay, Ki determination, bacterial DHFR
Assay type: biochemical, E. coli
Settings: average; read-out: bDHFR Ki/(μM) avg
quantity: log10 Ki (log10 of the value in µM)
Annotation: log10 of Ki, µM basis.

molecule	log10 Ki
CCC(c1ccc(Cl)c2ccccc12)N(C)c1ncc2c(N)nc(N)nc2n1 (stereo not drawn) [Compound 44]	-2.40
C[C@@H](c1ccc(F)c2ccccc12)N(C)c1ncc2c(N)nc(N)nc2n1 [Compound 38]	-1.22
CC(c1cccc2ccccc12)N(CCc1cccc(F)c1)c1ncc2c(N)nc(N)nc2n1 (stereo not drawn) [Compound 47]	-1.64
CCOc1ccc2ccccc2c1CN(C)c1ncc2c(N)nc(N)nc2n1 [Compound 29]	-1.70
CCN(c1ncc2c(N)nc(N)nc2n1)[C@H](C)c1ccc(F)c2ccccc12 [Compound 37]	-2.52
C[C@H](c1csc2ccccc12)N(CC1CC1)c1ncc2c(N)nc(N)nc2n1 [Compound 59]	-2.30
CCCC(c1cccc2ccccc12)N(C)c1ncc2c(N)nc(N)nc2n1 (stereo not drawn) [Compound 43]	-2.40
CC(c1cc(Cl)cc2ccccc12)N(C)c1ncc2c(N)nc(N)nc2n1 (stereo not drawn) [Compound 35]	-1.43
Cc1ccc([C@@H](C)N(CC2CC2)c2ncc3c(N)nc(N)nc3n2)c2ccccc12 [Compound 54]	-2.00
CC(c1cccc2ccccc12)N(C)c1ncc2c(N)nc(N)nc2n1 (stereo not drawn) [Compound 24]	-1.82

Would you kindly look at the next entry?
## Input Could you tell me which log10 Ki is on file for CCc1ccc2ccccc2c1C(C)N(C)c1ncc2c(N)nc(N)nc2n1 (stereo not drawn) [Compound 56] ?
## Output -1.03

----------
Listed here: items and their measured pKi.
Target: bacterial DHFR (bDHFR) (Escherichia coli, UniProt P0ABQ4)
Construct: gift of Eric Brown, McMaster University
Assay: DHFR enzyme assay, Ki determination, bacterial DHFR
Format: biochemical, E. coli
Settings: Table 3; read-out: bDHFR Ki
pKi: −log10 of the molar value.

Consider the worked cases shown below.
compound	pKi
CN(Cc1cnc2nc(N)nc(N)c2n1)c1ccccc1 [Compound 9]	6.30 to 7.00
CN(Cc1cnc2nc(N)nc(N)c2n1)c1cccc([N+](=O)[O-])c1 [Compound 14]	> 7.00
Nc1nc(N)c2nc(CNc3ccc(F)c([N+](=O)[O-])c3)cnc2n1 [Compound 15]	6.30 to 7.00
Nc1nc(N)c2nc(COc3cc([N+](=O)[O-])ccc3N)cnc2n1 [Compound 13]	6.00 to 6.30

## Input Give the reported pKi for Nc1nc(N)c2nc(CNc3ccc4nc(S)sc4c3)cnc2n1 [Compound 10] (system: bacterial DHFR (bDHFR) (Escherichia coli, UniProt P0ABQ4)).
## Output 6.30 to 7.00

## Input What value of pKi on bacterial DHFR (bDHFR) (Escherichia coli, UniProt P0ABQ4) does Nc1nc(N)c2nc(CNc3ccc([N+](=O)[O-])cc3O)cnc2n1 [Compound 12] have?
## Output 6.30 to 7.00

## Input Any idea what pKi came out for CN(Cc1cnc2nc(N)nc(N)c2n1)c1ccc(C(=O)NCCCCN)cc1 [Compound 2] on bacterial DHFR (bDHFR) (Escherichia coli, UniProt P0ABQ4)?
## Output 6.30 to 7.00

## Input Form entry - test system: bacterial DHFR (bDHFR) (Escherichia coli, UniProt P0ABQ4); read-out: pKi; compound: Nc1nc(N)c2nc(CNc3cccc(OCc4ccccc4)c3)cnc2n1 [Compound 16]
## Output > 7.00

## Input Fill in the recorded pKi for this compound, with bacterial DHFR (bDHFR) (Escherichia coli, UniProt P0ABQ4) as test system: Nc1nc(N)c2nc(CNc3cccc([N+](=O)[O-])c3)cnc2n1 [Compound 7]
## Output 6.30 to 7.00

----------
Target: bacterial DHFR (bDHFR) (Escherichia coli, UniProt P0ABQ4)
Construct: gift of Eric Brown, McMaster University
Assay: DHFR enzyme assay, Ki determination, bacterial DHFR
Format: biochemical, E. coli
Conditions: average; read-out: bDHFR Ki/(μM) avg
quantity: Ki

molecule	Ki
CC(c1cccc2ccccc12)N(CCc1ccc(Cl)cc1)c1ncc2c(N)nc(N)nc2n1 (stereo not shown)	0.011 µM
CC(c1c2c(cc3ccccc13)CCCC2)N(CC1CC1)c1ncc2c(N)nc(N)nc2n1 (stereo not shown)	0.024 µM
CCN(c1ncc2c(N)nc(N)nc2n1)[C@H](C)c1csc2ccccc12	0.005 µM

Now turn to the next molecule.
## Input Look up Ki: CCc1ccc2ccc(C(C)N(CC3CC3)c3ncc4c(N)nc(N)nc4n3)cc2c1 (stereo not shown)
## Output 0.03 µM

----------
Target: bacterial DHFR (bDHFR) (Escherichia coli, UniProt P0ABQ4)
Construct: gift of Eric Brown, McMaster University
Assay: DHFR enzyme assay, Ki determination, bacterial DHFR
Assay type: biochemical, E. coli
Conditions: Table 3; read-out: bDHFR Ki
quantity: Ki

Below, each entry is followed by its recorded Ki result.
compound	Ki
CN(Cc1cnc2nc(N)nc(N)c2n1)c1ccc(C(=O)NCc2cccnc2)cc1 [Compound 4]	< 0.1 µM
Nc1nc(N)c2nc(CNc3ccc4c(c3)OCO4)cnc2n1 [Compound 8]	1 to 5 µM

## Input Fill in the blank: the reported Ki of Nc1nc(N)c2nc(CNc3ccccc3)cnc2n1 [Compound 6] is ____.
## Output 1 to 5 µM

## Input # lookup: Ki of CN(Cc1cnc2nc(N)nc(N)c2n1)c1ccc(C(=O)Nc2ccc(O)cc2)cc1 [Compound 1]
## Output < 0.1 µM

## Input Can you share its Ki? I mean this compound: COC(=O)c1ccc(N(C)Cc2cnc3nc(N)nc(N)c3n2)cc1 [Compound 17]
## Output < 0.1 µM
